- Tested on: Zika virus NS2B-NS3 protease (unlinked complex)
- Assay comment: Primary screen GU Rhodamine qHTS for Zika virus inhibitors: Unlinked NS2B-NS3 protease assay (AID 1347159); also: nearly all actives have a fitted effect of over 60% in size
- Conditions used: Recombinant ZIKV NS2B-NS3 protease, Rhodamine110 substrate fluorescence; series mostly up to 107 µM
Inconclusive results are not listed. Active and inactive are the calls of the source. Calls follow the shape of the dose curve; as a rule, active = well fitted inhibition curve with a large enough effect; inconclusive = small, poorly fitted or top-dose-only effect; inactive = no such curve, though single readings can be large or run the other way.
Possible outcomes: active, inactive

compound=COc1c(C)cnc(Cn2cc(C#CCC(C)(C)O)c3c(Cl)nc(N)nc32)c1C class_label=inactive
compound="CCn1c(N)c(C(=O)NC)c(=O)c2ccc(C#CC(C)(O)COC)nc21 (stereo not drawn)" class_label=inactive
compound="CC(=O)OC1CC2(C)C(CCC(C)C23Cc2c(O)cc(CO)c(C=O)c2O3)C(C)(C)C1O (stereo not drawn)" class_label=inactive
compound="CC(=O)C=C=C1C(C)(C)CC(O)CC1(C)O[C@@H]1O[C@H](CO[C@H]2OC[C@](O)(CO)[C@H]2O)[C@@H](O)[C@H](O)[C@H]1O (stereo partly drawn)" class_label=active
compound="NCC(CNc1nc(Nc2cccc(NC(=O)N3CCCC3)c2)ncc1I)C(=O)c1cccs1 (stereo not drawn)" class_label=inactive
compound=O=C(Nc1cccnn1)N1CCN(c2nccc(-c3ccc(F)c(F)c3)n2)CC1 class_label=inactive
compound=Cc1nc(Nc2cnn(C3CCNCC3)c2)nc2c1N(C)C(=O)c1cc3ccccc3cc1N2C class_label=inactive
compound=Cc1onc(-c2ccccc2)c1C(=O)N1CCN(c2ccc([N+](=O)[O-])cc2Cl)CC1 class_label=inactive
compound=Cc1csc(N(C(=O)CSc2ccc(-c3ccccc3)nn2)C2CC2)n1 class_label=inactive
compound="CC(C)CC(=O)c1c(O)cc2c(c1O)C(CC(C)C)C1=C(O2)C(C)(C)C(=O)C(C)(C)C1=O (stereo not drawn)" class_label=active
compound="CCc1cc2c(cc1CC)CC(NCC(O)c1ccc(O)c3[nH]c(=O)ccc13)C2 (stereo not drawn)" class_label=inactive
compound=CC#C[C@@H](CC(=O)O)c1ccc(OCc2ccc(CN3CCC4(C=Cc5ccccc54)CC3)s2)cc1 class_label=active
compound=COc1ccc(S(=O)(=O)Nc2c(C)cc(C)cc2C)cc1 class_label=inactive
compound="C=C1C(OC2OC(CO)C(O)C(O)C2O)CC2C(C)(C)C(O)CCC2(C)C1CC/C(C)=C\\COC(=O)CC(=O)O (stereo not drawn)" class_label=inactive
compound=CC[C@H]1CN(c2nc(N)c(C(N)=O)nc2Cl)CCN1C1CCN(Cc2ccc(Cl)cc2)CC1 class_label=inactive
compound=CN(C)CCCn1cc(C2=C(c3c[nH]c4ccccc34)C(=O)NC2=O)c2ccccc21 class_label=inactive
compound=COc1ccccc1N1CCN(CC[C@@](C)(C(=O)C2CCCCC2)c2ccccc2)CC1 class_label=inactive
compound="CC[C@@H](C)[C@@H]1OC2(C=C[C@H]1C)C[C@@H]1C[C@H](C/C=C(\\C)[C@H](O[C@H]3C[C@H](OC)[C@H](O[C@H]4C[C@H](OC)[C@H](NC(C)=O)[C@H](C)O4)[C@H](C)O3)[C@H](C)/C=C/C=C3\\CO[C@H]4[C@H](O)C(C)=C[C@@H](C(=O)O1)[C@@]34O)O2 (stereo partly drawn)" class_label=inactive
